// provenance: ChEMBL document CHEMBL1817621

- Experimental target: Prostaglandin G/H synthase 2 (Homo sapiens)
- Sequence (whole entry): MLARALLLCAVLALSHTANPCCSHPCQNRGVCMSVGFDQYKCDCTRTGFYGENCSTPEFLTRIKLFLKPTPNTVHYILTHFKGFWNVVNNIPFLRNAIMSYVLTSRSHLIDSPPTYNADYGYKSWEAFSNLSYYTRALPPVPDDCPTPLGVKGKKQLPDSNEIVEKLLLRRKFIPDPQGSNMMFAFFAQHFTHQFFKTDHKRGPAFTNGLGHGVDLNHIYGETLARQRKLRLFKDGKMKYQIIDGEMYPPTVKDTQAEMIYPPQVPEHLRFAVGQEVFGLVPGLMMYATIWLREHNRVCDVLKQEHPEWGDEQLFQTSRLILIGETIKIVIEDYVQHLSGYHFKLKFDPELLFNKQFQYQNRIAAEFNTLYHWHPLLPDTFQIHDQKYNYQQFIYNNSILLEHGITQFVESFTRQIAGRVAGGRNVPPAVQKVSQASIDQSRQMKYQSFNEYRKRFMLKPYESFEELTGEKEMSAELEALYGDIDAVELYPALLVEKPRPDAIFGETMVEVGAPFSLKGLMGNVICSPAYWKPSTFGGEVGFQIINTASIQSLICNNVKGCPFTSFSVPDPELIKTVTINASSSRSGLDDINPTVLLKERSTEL
- Assay explanation: Inhibition of human recombinant COX-2 assessed as residual activity by measuring formation of 12-HHT from arachidonic acid at 10 uM by HPLC analysis
Measurement type: Activity (%)

// below: answered compounds
[[record]]
compound = "CCCCC(Cc1cc(OCCc2ccccc2)cc(OCCc2ccccc2)c1)C(=O)O (stereo unspecified)"
experimental_target = "Prostaglandin G/H synthase 2 (Homo sapiens)"
measurement_type = "Activity"
reported_result = 78.4

[[record]]
compound = "CCCCC(Cc1ccc(OCCc2ccccc2)c(OCCC2CCCCC2)c1)C(=O)O (stereo unspecified)"
experimental_target = "Prostaglandin G/H synthase 2 (Homo sapiens)"
measurement_type = "Activity"
reported_result = 96.6

[[record]]
compound = "CCCCC(Cc1ccc(OCCC2CCCCC2)c(OCCC2CCCCC2)c1)C(=O)O (stereo unspecified)"
experimental_target = "Prostaglandin G/H synthase 2 (Homo sapiens)"
measurement_type = "Activity"
reported_result = 79.1

[[record]]
compound = "CCCC/C(=C\\c1cc(OCc2ccc(C(F)(F)F)cc2)ccc1OCc1ccc(C(F)(F)F)cc1)C(=O)O"
experimental_target = "Prostaglandin G/H synthase 2 (Homo sapiens)"
measurement_type = "Activity"
reported_result = 102

[[record]]
compound = "CCCCC(Oc1cc(OCCc2ccccc2)cc(OCCc2ccccc2)c1)C(=O)O (stereo unspecified)"
experimental_target = "Prostaglandin G/H synthase 2 (Homo sapiens)"
measurement_type = "Activity"
reported_result = 92.5


(A) CCCC/C(=C\c1cc(OCCC2CCCCC2)ccc1OCCC1CCCCC1)C(=O)O
(B) CCCCC(Cc1cc(OCCc2ccccc2)ccc1OCCc1ccccc1)C(=O)O (stereo unspecified)
Q. Returns the identifier with the smallest measured Activity among A and B . Mark your answer with the label of the selected entry.
A. B
(B: 66.5%, A: 123%)
